Attribution: the RNAGym collection of RNA variant scans (doi:10.1073/pnas.2313332121)

Would you kindly list polymerase ribozyme fitness (log ratio) for each of these variants?
B1: TPR t1 (parent)
chain: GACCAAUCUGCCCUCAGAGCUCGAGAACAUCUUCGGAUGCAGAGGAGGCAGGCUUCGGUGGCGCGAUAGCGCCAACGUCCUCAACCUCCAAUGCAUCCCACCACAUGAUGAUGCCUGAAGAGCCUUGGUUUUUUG

Variants of: B1
assay-text: polymerase ribozyme fitness, log enrichment relative to wild type (log ratio); higher = more active; in vitro selection for triplet polymerase activity
Hey, just send me the number, nothing else.

Incoming: Bench note: what polymerase ribozyme fitness (log ratio) did A5G U14A C73U show?
Outgoing: -2.23

Incoming: Next entry: U38A A41C C72U G127U
Outgoing: -4.53

Incoming: Moving on to C62U A95G U96C
Outgoing: -1.53

Incoming: Same again, this time with U9G A26C U54A U55A C88U G93A
Outgoing: -6.29

Incoming: Quick one: U9G G48U C49U G69U G120U
Outgoing: 0.977

Incoming: Next variant up: U32C U116C
Outgoing: -1.17

Incoming: Moving on to the next variant: C3G C70G
Outgoing: -4.26

Incoming: // query: A41C A46G
Outgoing: -1.13

Incoming: Repeat for the following variant: A6U A50U G57C A75U
Outgoing: -0.743

Incoming: A29G G61A G93A C102G G117C ?
Outgoing: -7.25

Incoming: Same question, A37G G113C this time
Outgoing: -2.15

Incoming: Please do the same for C34U G45C G69U C115G as well.
Outgoing: -3.26

Incoming: Lookup C4A A27U
Outgoing: -3.57

Incoming: Also, C62A C72U please.
Outgoing: -1.74

Incoming: Param item: U9G A27C C98U
Outgoing: -4.04

Incoming: Again, but for C11G C15U C20U C70G
Outgoing: -3.71

Incoming: Similarly, A43U A111U ?
Outgoing: -4.27

Incoming: Same lookup for C12A G57U C82G G113A G122A , please.
Outgoing: -2.01

Incoming: G23U G42U U54G C64G G93C G117C ?
Outgoing: -6.49

Incoming: C11U C70U C102U , same question.
Outgoing: -3.34

Incoming: Note, next up: C73G U109A
Outgoing: -5.36

Incoming: Could you do the same for U109C A111U , please?
Outgoing: -4.13

Incoming: C62G A100C ?
Outgoing: -3.47

Incoming: Then what about the variant A50C A121G ?
Outgoing: 1.73

Incoming: Now try G36A C85G U131C .
Outgoing: -2.08

Incoming: Please give the result for G61C C88U A90C G110U too.
Outgoing: -5.87

Incoming: Also check A91U U96G G120U
Outgoing: -1.75

Incoming: Please give the result for C12A C88G too.
Outgoing: -1.56

Incoming: Next record, please: C28A U112C U116G U130A U132C
Outgoing: -5.19

Incoming: Now give it for G39C U109A G110U too.
Outgoing: -3.37

Incoming: Field entry: A2G A5U G71U A111U G120A
Outgoing: -5.48

Incoming: And then G42U G47A , what is it?
Outgoing: -1.67

Incoming: Param item: C8G C102U
Outgoing: -1.57

Incoming: Check C13U G63A U78C too.
Outgoing: -0.503

Incoming: Also check G42C G61U
Outgoing: -1.04

Incoming: Input U7G C12A C97U G117C
Outgoing: -3.54

Incoming: // query: U7G G61A C76A C94A G110C G117C
Outgoing: -7.29

Incoming: Try U55G A100C next.
Outgoing: -0.346

Incoming: How about this variant: C40A G60A G110C
Outgoing: -6.85

Incoming: Let us now turn to U7C C12A C76G
Outgoing: 0.0602

Incoming: And what about the variant C76G A90C C101U ?
Outgoing: -1

Incoming: Lookup U7A G48C A74U G113A U130C U133G
Outgoing: -1.3

Incoming: One more variant: C4U C8G C13A U21G G77U C82A A84U A121C
Outgoing: -0.469

Incoming: Do the same for C94U G113U please
Outgoing: -2.09

Incoming: Input C85G G113A
Outgoing: -2.15

Incoming: Moving on to the next variant: C3A G110C C123G
Outgoing: -4.82

Incoming: Also check G52A C98U
Outgoing: -1.13

Incoming: Proceed to A74U G93A
Outgoing: -0.498

Incoming: What do you have for G36A U54G ?
Outgoing: -1.04

Incoming: Again, but for C34A A46U
Outgoing: -3.37

Incoming: Again, but for C114A U125A
Outgoing: -1.73

Incoming: Consider next the variant U55G C73G C123U in the same way.
Outgoing: 0.666

Incoming: Same read-out for U7G G77C ?
Outgoing: 0.424

Incoming: Try this variant too: A66U U81G U116G C124A
Outgoing: -5.38

Incoming: Check C56U G77A C94U C102A too.
Outgoing: -2.87

Incoming: Field entry: C86U U112A
Outgoing: 0.825

Incoming: Proceed to G39U C49A C80U
Outgoing: -3.62

Incoming: Same thing, different variant: C49A C102A A121U G122U U133C
Outgoing: -0.655

Incoming: Next: A29G G60C U131A
Outgoing: -1.85

Incoming: Same thing, different variant: C53A C72U C86U G110C
Outgoing: -3.78

Incoming: Moving on to the next variant: C8G C12U A68G G122A C123U
Outgoing: -1.28

Incoming: Moving on to the next variant: C62A A91G
Outgoing: -2.78

Incoming: Here is the next variant: C20U G63U G93A C114G
Outgoing: -2.6

Incoming: What do you have for G60A U130G ?
Outgoing: -0.663

Incoming: Repeat with C20U A27C G117U
Outgoing: -6

Incoming: What do you have for U109A G110A ?
Outgoing: -4.3

Incoming: Another variant to check: A6U C53U U54G G93U U106A U129A
Outgoing: -2.14

Incoming: Also C11A G48A C62U G128C ?
Outgoing: -3

Incoming: Please answer likewise for C34U A37C G60C C124A
Outgoing: -3.79

Incoming: Ok, now G39U C115G
Outgoing: -2.58

Incoming: Also, A2G G47C U81G please.
Outgoing: -3.47

Incoming: Now consider G47U U87A and answer again.
Outgoing: -2.55

Incoming: Record: C73U C101G G120U
Outgoing: -0.999

Incoming: // repeat for C53U U59C U96A and report
Outgoing: -1.65

Incoming: What would you report for G19A C73G G77U U112A G128A ?
Outgoing: -2.41

Incoming: Do the same for C49G C88A G107U please
Outgoing: -6.08

Incoming: And the next one, A6U C73A ?
Outgoing: 0.0629

Incoming: Queued: C72A A103U C124G U131C
Outgoing: -2.63

Incoming: Another variant: C8A C11U G17C
Outgoing: -2.13

Incoming: Entry to check: C72G G93A
Outgoing: -0.585

Incoming: What do you have for C28A U30G A43G G110C ?
Outgoing: -6.92

Incoming: And for C4G A111G ?
Outgoing: -1.57

Incoming: Now consider C11U G17A C82A .
Outgoing: -4.52

Incoming: Then A27U C28G G63U G110C ?
Outgoing: -5.36

Incoming: Entry G61A C104A please
Outgoing: -1.95

Incoming: Now this one: C8U U14A G61A
Outgoing: -0.345

Incoming: Do the same for C104U G120A please
Outgoing: 0.815

Incoming: Here is the next variant: C12G A27G C64U C104U
Outgoing: -2.48

Incoming: Try this variant next: C56G C62G
Outgoing: -3.35

Incoming: And for A6G C8G G69U ?
Outgoing: 0.471

Incoming: Let us now turn to U14C G60C C64A U109G
Outgoing: -6.09
